target.entity: PLK1 (Homo sapiens, UniProt P53350)
Construct: endogenous in cells; host or cells: HeLa
Sequence (P53350 whole entry): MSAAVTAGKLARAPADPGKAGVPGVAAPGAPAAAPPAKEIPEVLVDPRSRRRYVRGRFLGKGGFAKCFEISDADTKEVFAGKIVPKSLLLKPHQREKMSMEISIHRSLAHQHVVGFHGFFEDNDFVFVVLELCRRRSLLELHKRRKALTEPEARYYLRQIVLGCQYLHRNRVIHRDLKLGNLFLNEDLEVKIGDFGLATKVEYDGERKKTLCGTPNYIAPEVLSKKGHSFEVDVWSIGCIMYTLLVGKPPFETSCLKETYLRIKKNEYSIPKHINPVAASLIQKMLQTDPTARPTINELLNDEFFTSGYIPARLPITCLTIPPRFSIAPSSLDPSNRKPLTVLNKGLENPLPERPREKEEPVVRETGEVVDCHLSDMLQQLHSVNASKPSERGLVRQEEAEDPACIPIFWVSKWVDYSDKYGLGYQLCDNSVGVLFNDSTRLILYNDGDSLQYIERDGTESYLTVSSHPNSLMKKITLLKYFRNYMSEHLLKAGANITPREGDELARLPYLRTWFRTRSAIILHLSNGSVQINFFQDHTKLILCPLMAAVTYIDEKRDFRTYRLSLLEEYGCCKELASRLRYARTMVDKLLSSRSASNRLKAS
assay.method.text: PLK1 protein degradation in HeLa cells, Western blotting (PLK1/GAPDH ratio)
Assay type: cell-based
recorded.conditions: thymidine block and release, 6 hours compound incubation, 10 points three-fold from 3 μM, PLK1 to GAPDH ratio, read-out: Dmax
parameter.measured: Dmax

Consider the compound COc1cc(C(=O)N[C@H]2CCN(C(=O)CCN3CCN(c4ccc5c(c4)C(=O)N(C4CCC(=O)NC4=O)C5=O)CC3)C2)ccc1Nc1ncc2c(n1)N(C1CCCC1)CC(F)(F)C(=O)N2C (some centres unmarked) and give its measured Dmax.
≥ 80%

Item COc1cc(C(=O)N[C@H]2CCN(C(=O)CCCC(=O)N3CCN(c4ccc5c(c4)C(=O)N(C4CCC(=O)NC4=O)C5=O)CC3)C2)c(F)cc1Nc1ncc2c(n1)N(C1CCCC1)CC(F)(F)C(=O)N2C (some centres unmarked) has what recorded Dmax?
60 to 80%

Suppose we examine the compound COc1cc(C(=O)NC2CCN(C(=O)CCN3CCN(c4ccc5c(c4)C(=O)N(C4CCC(=O)NC4=O)C5=O)CC3)CC2)c(F)cc1Nc1ncc2c(n1)N(C1CCCC1)CC(F)(F)C(=O)N2C (centres unmarked) ; what Dmax value has been reported?
≥ 80%

Reported Dmax, compound COc1cc(C(=O)NC2CCN(CCN3CCN(c4ccc5c(c4)C(=O)N(C4CCC(=O)NC4=O)C5=O)CC3)CC2)c(F)cc1Nc1ncc2c(n1)N(C1CCCC1)CC(F)(F)C(=O)N2C (centres unmarked) : ____
60 to 80%

Find the recorded Dmax belonging to CCC(C)Oc1cc(C(=O)NC2CCN(CCOCCOCCNc3cccc4c3C(=O)N(C3CCC(=O)NC3=O)C4=O)CC2)c(F)cc1Nc1ncc2c(n1)N(C1CCCC1)CC(F)(F)C(=O)N2C (centres unmarked) and report it.
60 to 80%

Each recorded value in this set is attributed to patent US20230372498A1.
